Source: PubChem BioAssay (NCATS)

Test: qHTS of pediatric cancer cell lines to identify multiple opportunities for drug repurposing: Primary screen for OHS-50 cells (AID 1347103); also: nearly all actives have a fitted effect of over 40% in size; also: potency is read from the fitted curve at half-maximal effect
Settings: OHS-50 osteosarcoma viability, CellTiter-Glo luminescence, 48 h; series mostly up to 57.3 µM
Inconclusive results are not listed. Active and inactive are the calls of the source. Calls follow the shape of the dose curve; as a rule, active = well fitted cell-killing curve with a large enough effect; inconclusive = small, poorly fitted or top-dose-only effect; inactive = no such curve, though single readings can be large or run the other way.
property: Potency

Sample answers from the record:
| molecule | Potency |
| --- | --- |
| C[C@H]1O[C@@H](n2cc(F)c(=O)[nH]c2=O)[C@H](O)[C@@H]1O | inactive |
| Cc1c(O)cccc1C(=O)N[C@@H](CSc1ccccc1)[C@H](O)CN1C[C@H]2CCCC[C@H]2C[C@H]1C(=O)NC(C)(C)C | 24.6 µM (active) |
| CCn1cc(C(=O)O)c(=O)c2cnc(N3CCNCC3)nc21 | inactive |
| CNCCCC1c2ccccc2C=Cc2ccccc21 | 21.9 µM (active) |
| O=C(O)c1ccccc1O | inactive |

The molecule listed as `CC(=O)CCC(=O)O` has a reported Potency of inactive

The molecule listed as `c1ccc(CN(CC2=NCCN2)c2ccccc2)cc1` has a reported Potency of inactive

The molecule listed as `CCC(=O)c1ccc(O)cc1` has a reported Potency of inactive

The molecule listed as Cc1cc(C(C#N)c2ccc(Cl)cc2)c(Cl)cc1NC(=O)c1cc(I)cc(I)c1O (centres undefined) has a reported Potency of 30.9 µM (active)

The molecule listed as CC(=O)NC(Cc1ccccc1)C(=O)O (centres undefined) has a reported Potency of inactive

The molecule listed as `O=C(Oc1ccccc1C(=O)O)c1ccccc1O` has a reported Potency of inactive

The molecule listed as `C=Cc1c(C)c2cc3[nH]c(cc4nc(cc5nc(cc1[nH]2)C(C)=C5CCC(=O)O)C(CCC(=O)O)=C4C)c(C)c3C=C` has a reported Potency of inactive

The molecule listed as `CC(=O)Nc1ccc(/C=N/NC(N)=S)cc1` has a reported Potency of inactive

The molecule listed as `COc1cc(C)c(Cc2cnc(N)nc2N)cc1OC` has a reported Potency of inactive

====

Target: N-terminal Xaa-Pro-Lys N-methyltransferase 1 (Homo sapiens) (UniProt Q9BV86)
Sequence (Q9BV86 whole entry, looked up): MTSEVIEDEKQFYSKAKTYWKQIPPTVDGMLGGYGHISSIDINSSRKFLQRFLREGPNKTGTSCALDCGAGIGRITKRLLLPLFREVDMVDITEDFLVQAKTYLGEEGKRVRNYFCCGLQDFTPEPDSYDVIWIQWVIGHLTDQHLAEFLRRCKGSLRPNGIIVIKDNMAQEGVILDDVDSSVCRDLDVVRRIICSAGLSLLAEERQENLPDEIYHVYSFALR
Experiment: qHTS Assay for Inhibitors of N-terminal methyltransferase 1 (NTMT1): LOPAC validation of the NTMT1 SAHH-coupled ThioGlo3 Assay (AID 1347143);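 also: SAH from peptide methylation measured as thiol fluorescence via SAHH coupling and ThioGlo3; nearly all actives have a fitted effect of over 70% in size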
Conditions: recombinant NTMT1, SAHH-coupled ThioGlo3 fluorescence; series mostly up to 114 µM
Records with an inconclusive call do not appear. Activity calls are given as the source filed them. The call rests on the fitted dose curve; in most records, active means well fitted inhibition curve with a large enough effect; inconclusive means small, poorly fitted or top-dose-only effect; inactive means no such curve, though single readings can be large or run the other way.

| molecule | outcome |
| --- | --- |
| CCN(CC)CCOC(=O)C1(C2CCCCC2)CCCCC1 | inactive |
| C[C@H](NC(CCc1ccccc1)C(=O)O)C(=O)N1CCC[C@H]1C(=O)O (stereo partly drawn) | inactive |
| CN(C)CCOC(C)(c1ccccc1)c1ccccn1 (stereo not drawn) | inactive |

====

Test system: MKL-2
Experiment: qHTS assay to identify novel small-molecules to repurpose for Merkel cell carcinoma treatment (AID 1296009); also: nearly all actives have a fitted effect of over 60% in size
Details: MCC and control cell lines, CellTiter-Glo viability, 72 h; series mostly up to 46 µM
Inconclusive results are not listed. Active and inactive are the calls of the source. The call rests on the fitted dose curve; in most records, active means well fitted inhibition curve with a large enough effect; inconclusive means small, poorly fitted or top-dose-only effect; inactive means flat fitted curve, though single readings scatter.
Returns: one label drawn from active, inactive

Per the records of this test, what outcome belongs to `O=C1O[C@H](CO)[C@@H](O)[C@H](O)[C@H]1O` ?
inactive

Per the records of this test, what outcome belongs to `O=C1NC(=O)[C@@]2(CCOc3ccc(F)cc32)N1` ?
inactive

Per the records of this test, what outcome belongs to `CCCCCCCCCCCCOS(=O)(=O)O` ?
inactive

Per the records of this test, what outcome belongs to `O=C(CCCN1CCN(c2ccccn2)CC1)c1ccc(F)cc1` ?
inactive

Per the records of this test, what outcome belongs to `O=C(O)c1ccccn1` ?
inactive

Per the records of this test, what outcome belongs to `CCN(CC)CCNC(=O)c1cc(Cl)c(N)cc1OC` ?
inactive

Per the records of this test, what outcome belongs to `O=S(=O)(O)NC1CCCCC1` ?
inactive

Per the records of this test, what outcome belongs to `OC[C@H]1O[C@@H](O[C@@H]2[C@@H](CO)O[C@](O)(CO)[C@H]2O)[C@H](O)[C@@H](O)[C@H]1O` ?
inactive

Per the records of this test, what outcome belongs to CC1CC(OC(=O)C(O)c2ccccc2)CC(C)(C)N1C (stereo unspecified) ?
inactive

Per the records of this test, what outcome belongs to `Cc1cccc(C)c1NC(=O)CN(CC(=O)O)CC(=O)O` ?
inactive

Per the records of this test, what outcome belongs to `O=C1O[C@H]([C@@H](O)CO)C(O)=C1O` ?
inactive

Per the records of this test, what outcome belongs to `Oc1cccc(O)c1` ?
inactive

Per the records of this test, what outcome belongs to `CC(C)(C)C(=O)NCCCC(=O)O` ?
inactive

Per the records of this test, what outcome belongs to `CCCCOC(=O)c1ccc(O)cc1` ?
inactive

Per the records of this test, what outcome belongs to CC(C)(C)NCC(O)COc1ccc(NC(=O)NC2CCCCC2)cc1 (stereo unspecified) ?
inactive

Per the records of this test, what outcome belongs to COc1ccc2[nH]c(S(=O)Cc3ncc(C)c(OC)c3C)nc2n1 (stereo unspecified) ?
inactive

Per the records of this test, what outcome belongs to `O=C1N=C(O)CN1/N=C/c1ccc(-c2ccc([N+](=O)[O-])cc2)o1` ?
inactive

Per the records of this test, what outcome belongs to `CNCCCC1c2ccccc2C=Cc2ccccc21` ?
active

Per the records of this test, what outcome belongs to `NC1CCN(c2cccc(Cl)n2)CC1` ?
inactive

Per the records of this test, what outcome belongs to `Cc1ncc(COP(=O)(O)O)c(C=O)c1O` ?
inactive

Per the records of this test, what outcome belongs to CCN(CC)C(C)CN1c2ccccc2Sc2ccccc21 (stereo unspecified) ?
inactive

Per the records of this test, what outcome belongs to `OCC(CO)N[C@H]1C[C@](O)(CO)[C@@H](O)[C@H](O)[C@H]1O` ?
inactive

Per the records of this test, what outcome belongs to CN1CCN(C2Cc3ccccc3Sc3ccc(Cl)cc32)CC1 (stereo unspecified) ?
active

Per the records of this test, what outcome belongs to CCOC(CN1CCN(CC(C)C(=O)c2ccccc2)CC1)c1ccccc1 (stereo unspecified) ?
inactive

Per the records of this test, what outcome belongs to `O=C(Oc1ccccc1C(=O)O)c1ccccc1O` ?
inactive

Per the records of this test, what outcome belongs to `Nc1ccc(S(=O)(=O)Nc2nccs2)cc1` ?
inactive

Per the records of this test, what outcome belongs to `CNC(=O)Oc1ccc2c(c1)[C@]1(C)CCN(C)[C@@H]1N2C` ?
inactive

Per the records of this test, what outcome belongs to `CC(C)(O)c1ccccc1CC[C@@H](SCC1(CC(=O)O)CC1)c1cccc(/C=C/c2ccc3ccc(Cl)cc3n2)c1` ?
inactive

Per the records of this test, what outcome belongs to `O=C(O)[C@H](O)c1ccccc1` ?
inactive

Per the records of this test, what outcome belongs to CCCCCCCCCCCCCCCCCCOCC(O)CO (stereo unspecified) ?
inactive

Per the records of this test, what outcome belongs to `CC(=O)CCC(=O)O` ?
inactive

====

Biological target: Ubiquitin carboxyl-terminal hydrolase 1 (Homo sapiens) (UniProt O94782)
Sequence (O94782 whole entry, looked up): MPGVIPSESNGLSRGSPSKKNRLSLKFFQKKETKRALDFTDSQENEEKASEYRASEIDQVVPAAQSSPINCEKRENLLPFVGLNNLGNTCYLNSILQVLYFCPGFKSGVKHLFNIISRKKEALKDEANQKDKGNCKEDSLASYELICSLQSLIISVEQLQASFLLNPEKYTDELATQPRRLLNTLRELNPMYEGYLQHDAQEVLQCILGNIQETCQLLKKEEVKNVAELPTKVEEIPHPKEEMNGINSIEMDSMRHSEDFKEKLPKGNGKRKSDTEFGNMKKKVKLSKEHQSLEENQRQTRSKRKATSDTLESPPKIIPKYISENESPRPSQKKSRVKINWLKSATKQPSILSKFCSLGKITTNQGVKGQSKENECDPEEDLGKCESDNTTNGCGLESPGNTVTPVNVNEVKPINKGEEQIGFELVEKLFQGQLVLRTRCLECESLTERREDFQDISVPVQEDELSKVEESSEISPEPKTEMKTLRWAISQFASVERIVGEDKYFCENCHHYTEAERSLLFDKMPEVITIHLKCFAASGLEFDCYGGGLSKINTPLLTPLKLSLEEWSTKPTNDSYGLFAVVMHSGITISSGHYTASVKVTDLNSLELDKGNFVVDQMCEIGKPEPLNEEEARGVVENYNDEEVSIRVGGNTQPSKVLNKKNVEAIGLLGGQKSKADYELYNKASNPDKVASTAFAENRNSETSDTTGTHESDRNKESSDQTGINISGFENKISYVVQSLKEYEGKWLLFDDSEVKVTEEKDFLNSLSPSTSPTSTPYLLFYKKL
Assay: Inhibitors of USP1/UAF1: Pilot qHTS (AID 504865);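 also: rhodamine fluorescence freed from ubiquitin-rhodamine substrate followed over time; top concentration of the series differs between compounds; nearly all actives have a fitted effect of over 35% in size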
Conditions: purified USP1/UAF1, Ub-rhodamine cleavage fluorescence; series mostly up to 114 µM
Records with an inconclusive call do not appear. The source made the active and inactive calls. Calls follow the shape of the dose curve; as a rule, active = well fitted inhibition curve with a large enough effect; inconclusive = small, poorly fitted or top-dose-only effect; inactive = flat fitted curve, though single readings scatter.
property: outcome

| molecule | property | reported |
| --- | --- | --- |
| CN(C)CCCN1c2ccccc2Sc2ccc(Cl)cc21 | outcome | inactive |
| C[C@]12CC[C@@H]3c4ccc(O)cc4CC[C@H]3[C@@H]1CCC2=O | outcome | inactive |
| O=S(=O)(O)c1cc(I)c(O)c2ncccc12 | outcome | inactive |
| CC1=C(CC(=O)O)c2cc(F)ccc2/C1=C\c1ccc(S(C)(=O)=O)cc1 | outcome | inactive |
| CC(C)(C)c1onc(OCP(=O)(O)O)c1CC(N)C(=O)O (centres undefined) | outcome | inactive |

The molecule listed as CC(C)(C)C(=O)C(Oc1ccc(Cl)cc1)n1ccnc1 (centres undefined) has a reported outcome of inactive

The molecule listed as `Cc1cccc(Nc2cc(Cl)nc(SCC(=O)O)n2)c1C` has a reported outcome of inactive

The molecule listed as `OCCN1CCN(CCCN2c3ccccc3Sc3ccc(Cl)cc32)CC1` has a reported outcome of inactive

The molecule listed as `O=c1[nH]c(=O)c2[nH]c(=O)[nH]c2[nH]1` has a reported outcome of inactive

The molecule listed as `CC[C@@]1(c2ccccc2)NC(=O)N(C)C1=O` has a reported outcome of inactive

The molecule listed as `C[C@H](N)[C@H](O)c1cccc(O)c1` has a reported outcome of inactive

The molecule listed as `C[C@H]1O[C@@H](n2cc(F)c(=O)[nH]c2=O)[C@H](O)[C@@H]1O` has a reported outcome of inactive

The molecule listed as `COc1ccc2c(c1)C(=O)N(CCc1ccc(S(=O)(=O)NC(=O)NC3CCCCC3)cc1)C(=O)C2(C)C` has a reported outcome of inactive

The molecule listed as `COc1ccccc1O` has a reported outcome of inactive
